# Tested on: Staphylococcus aureus
# method_notes: Antibacterial activity against Staphylococcus aureus UC9218 in presence of 10% human serum
# Assay type: functional
quantity_measured: MIC

{"smiles_repr": "O=C(c1cccc(S(=O)(=O)N2CCc3cc(Cl)ccc32)c1)n1[nH]c(=O)c2cc(OC(F)(F)F)ccc21", "MIC": "> 128 µg/mL"}
{"smiles_repr": "O=C(c1cccc(S(=O)(=O)N2CCc3cc(Cl)ccc32)c1)n1[nH]c(=O)c2cc(C(F)(F)F)ccc21", "MIC": "> 128 µg/mL"}
{"smiles_repr": "Cc1ccc2c(c1)c(=O)[nH]n2C(=O)c1cccc(S(=O)(=O)N2CCc3cc(Cl)ccc32)c1", "MIC": "> 128 µg/mL"}

# input Given the entry "Cn1c(C(=O)n2[nH]c(=O)c3cc(Br)ccc32)cc2cccc(S(=O)(=O)c3ccccc3)c21" , report its measured MIC.
# output 128 µg/mL

# input Lookup "O=C(c1cccc(S(=O)(=O)N2CCc3cc(Cl)ccc32)c1)n1[nH]c(=O)c2cc(Br)ccc21"
# output 128 µg/mL

# input Lookup "O=C(c1ccc(S(=O)(=O)N2CCc3cc(Cl)ccc32)cc1)n1[nH]c(=O)c2cc(Br)ccc21"
# output > 128 µg/mL

# input Lookup "O=C(c1cncc(SCc2ccccc2)n1)n1[nH]c(=O)c2cc(Br)ccc21"
# output > 128 µg/mL

# input Lookup "Cn1c(C(=O)n2[nH]c(=O)c3cc(C#N)ccc32)cc2ccccc21"
# output > 128 µg/mL

# input Lookup "O=C(c1cc(-c2ccccc2)on1)n1[nH]c(=O)c2cc(Br)ccc21"
# output > 128 µg/mL

---

Reported MIC is given for each of the following molecules.
# Test system: Staphylococcus aureus
# method_notes: Antibacterial activity against Staphylococcus aureus UC9218 in presence of 10% human serum
# Type: functional

{"smiles_repr": "CN(c1ccc(Cl)cc1)S(=O)(=O)c1cc(Br)cc(C(=O)n2[nH]c(=O)c3cc(Br)ccc32)c1", "MIC": "> 128 µg/mL"}

# input Value wanted: MIC (Staphylococcus aureus) of entry "O=C(c1ccc(S(=O)(=O)N2CCc3cc(Cl)ccc32)cc1)n1[nH]c(=O)c2cc(Cl)ccc21"
# output > 128 µg/mL

# input Lookup "O=C(c1cccc(S(=O)(=O)N2CCOCC2)c1)n1[nH]c(=O)c2cc(Br)ccc21"
# output > 128 µg/mL

# input Lookup "O=C(c1cccc(S(=O)(=O)N2CCc3ccccc32)c1)n1[nH]c(=O)c2cc(Br)ccc21"
# output 128 µg/mL

# input Lookup "N#Cc1ccc2c(c1)c(=O)[nH]n2C(=O)c1ccc(S(=O)(=O)N2CCc3cc(Cl)ccc32)cc1"
# output > 128 µg/mL

# input Lookup "Cn1c(C(=O)n2[nH]c(=O)c3cc(C#N)ccc32)cc2cccc(S(=O)(=O)c3ccccc3)c21"
# output 64 µg/mL

# input Lookup "O=C(c1ccc(S(=O)(=O)N2CCc3cc(Cl)ccc32)cc1)n1[nH]c(=O)c2ccc(Cl)cc21"
# output > 128 µg/mL

# input Lookup "O=C(c1cccc(S(=O)(=O)N2CCc3cc(Cl)ccc32)c1)n1[nH]c(=O)c2ccc(Cl)cc21"
# output > 128 µg/mL

# input Lookup "O=C(c1cccc(S(=O)(=O)N2CCOCC2)c1)n1[nH]c(=O)c2cc(Cl)ccc21"
# output > 128 µg/mL

---

# System: Staphylococcus aureus
# method_notes: Antibacterial activity against Staphylococcus aureus UC9218
# Type: functional
quantity_measured: MIC

Study these solved cases before continuing.
{"smiles_repr": "O=C(c1cccc(S(=O)(=O)N2CCOCC2)c1)n1[nH]c(=O)c2cc(Cl)ccc21", "value_measured": "> 128 µg/mL"}
{"smiles_repr": "CN(c1ccc(Cl)cc1)S(=O)(=O)c1cccc(C(=O)n2[nH]c(=O)c3cc(Br)ccc32)c1", "value_measured": "> 128 µg/mL"}
{"smiles_repr": "O=C(c1cnc(SCc2ccccc2)cn1)n1[nH]c(=O)c2cc(Br)ccc21", "value_measured": "> 128 µg/mL"}
{"smiles_repr": "N#Cc1ccc2c(c1)c(=O)[nH]n2C(=O)c1cncc(SCc2ccccc2)n1", "value_measured": "> 128 µg/mL"}
{"smiles_repr": "O=C(c1cccc(S(=O)(=O)N2CCOCC2)c1)n1[nH]c(=O)c2cc(Br)ccc21", "value_measured": "> 128 µg/mL"}

# input Value wanted: MIC (Staphylococcus aureus) of entry "O=C(c1cccc(S(=O)(=O)N2CCc3cc(Cl)ccc32)c1)n1[nH]c(=O)c2cc(Cl)ccc21"
# output 4 µg/mL

# input Lookup "O=C(c1cc(-c2ccccc2)on1)n1[nH]c(=O)c2cc(Br)ccc21"
# output 16 µg/mL

# input Lookup "O=C(c1cccc(S(=O)(=O)N2CCc3cc(Cl)ccc32)c1)n1[nH]c(=O)c2ccc(Cl)cc21"
# output 8 µg/mL

# input Lookup "CN(c1ccc(Cl)cc1)S(=O)(=O)c1cc(Br)cc(C(=O)n2[nH]c(=O)c3cc(Br)ccc32)c1"
# output > 128 µg/mL

# input Lookup "O=C(c1cccc(S(=O)(=O)N2CCc3cc(Cl)ccc32)c1)n1[nH]c(=O)c2ccc(Br)cc21"
# output 8 µg/mL

# input Lookup "CC(C)Sc1ccc(C(=O)n2[nH]c(=O)c3cc(Br)ccc32)cn1"
# output > 128 µg/mL

# input Lookup "O=C(c1ccc(S(=O)(=O)N2CCc3cc(Cl)ccc32)cc1)n1[nH]c(=O)c2ccc(Cl)cc21"
# output 8 µg/mL

# input Lookup "N#Cc1ccc2c(c1)c(=O)[nH]n2C(=O)c1cnc(SCc2ccccc2)cn1"
# output > 128 µg/mL

---

# System: Staphylococcus aureus
# method_notes: Antibacterial activity against Staphylococcus aureus UC9218 in presence of 10% human serum
# Assay type: functional
Reported MIC is given for each of the following compounds.

# input Value wanted: MIC (Staphylococcus aureus) of entry "O=C(c1cccc(S(=O)(=O)N2CCc3cc(Cl)ccc32)c1)n1[nH]c(=O)c2cc(Cl)ccc21"
# output 128 µg/mL

# input Lookup "N#Cc1ccc2c(c1)c(=O)[nH]n2C(=O)c1cc2ccccc2[nH]1"
# output > 128 µg/mL

# input Lookup "N#Cc1ccc2c(c1)c(=O)[nH]n2C(=O)c1cc2cccc(S(=O)(=O)c3ccccc3)c2[nH]1"
# output > 128 µg/mL
